The values you see were collected from paper PMC12548168.

study.target: Mcl-1 (myeloid cell leukemia 1) (Homo sapiens, UniProt Q07820)
Construct: gene MCL1
Sequence (Q07820 whole entry): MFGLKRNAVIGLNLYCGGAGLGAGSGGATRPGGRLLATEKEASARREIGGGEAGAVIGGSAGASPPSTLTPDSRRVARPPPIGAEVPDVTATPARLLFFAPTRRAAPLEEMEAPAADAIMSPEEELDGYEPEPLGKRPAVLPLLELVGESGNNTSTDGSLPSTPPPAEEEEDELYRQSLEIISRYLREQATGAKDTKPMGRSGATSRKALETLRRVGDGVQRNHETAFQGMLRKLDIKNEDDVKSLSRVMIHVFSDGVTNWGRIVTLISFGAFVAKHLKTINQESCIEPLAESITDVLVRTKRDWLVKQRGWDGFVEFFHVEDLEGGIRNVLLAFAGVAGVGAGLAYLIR
protocol: surface plasmon resonance (SPR)
Assay type: binding
readout.type: pKd
Remember the convention: pKd equals -log10 of concentration in molar.

Recorded pKd for O=C(O)C[C@H](O)C[C@H](O)/C=C/c1c(C2CC2)nc2ccccc2c1-c1ccc(F)cc1 [PITA, Pitavastatin] , please?
5.41

---

study.target: Mcl-1 (myeloid cell leukemia 1) (Homo sapiens)
Construct: gene MCL1
protocol: surface plasmon resonance (SPR), reference Mcl-1 inhibitor (Supplementary Fig. S2)
Type: binding
readout.type: Kd (µM)
Response body: numeric value in µM, unit text excluded.

What does the data say about its Kd? Entry: "Cc1cc2c(C(C)C)c(O)c(O)c(C=O)c2c(O)c1-c1c(C)cc2c(C(C)C)c(O)c(O)c(C=O)c2c1O"
9.48
